Target Desc: T1, ECF35_3582
T1 chain: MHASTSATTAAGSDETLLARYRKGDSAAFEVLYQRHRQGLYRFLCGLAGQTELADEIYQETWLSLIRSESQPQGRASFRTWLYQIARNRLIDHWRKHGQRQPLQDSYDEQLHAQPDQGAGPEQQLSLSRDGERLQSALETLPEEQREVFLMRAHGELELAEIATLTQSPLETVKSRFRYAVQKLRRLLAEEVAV
Assay Metric: fold repression
In your answer, state the number alone without any accompanying words.

Consider the binder AS02_915 (protein) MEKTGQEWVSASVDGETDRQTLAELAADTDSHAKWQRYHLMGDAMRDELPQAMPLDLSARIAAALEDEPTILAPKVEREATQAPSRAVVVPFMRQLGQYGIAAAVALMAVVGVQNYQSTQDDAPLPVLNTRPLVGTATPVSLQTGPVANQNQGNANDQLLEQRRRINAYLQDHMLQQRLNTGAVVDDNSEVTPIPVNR . State its measured fold repression. 2.65

Consider the binder AS16_973 (protein) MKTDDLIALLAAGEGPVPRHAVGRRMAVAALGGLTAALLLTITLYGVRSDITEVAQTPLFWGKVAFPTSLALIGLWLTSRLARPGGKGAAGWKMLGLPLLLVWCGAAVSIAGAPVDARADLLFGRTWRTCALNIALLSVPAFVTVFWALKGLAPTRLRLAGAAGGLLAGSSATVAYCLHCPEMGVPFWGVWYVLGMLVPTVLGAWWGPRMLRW . State its measured fold repression. 0.722

Identify the reported fold repression for the following entry. AS04_1609 (protein) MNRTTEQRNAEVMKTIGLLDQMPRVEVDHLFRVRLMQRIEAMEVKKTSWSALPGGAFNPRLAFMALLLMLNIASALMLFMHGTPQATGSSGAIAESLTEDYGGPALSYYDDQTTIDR 3.24
